Ref: patent US9388215B2

- experimental_details: Pharmacokinetics in SD rats after single subcutaneous dose (Example X)
- Assay type: in vivo, rat
- condition: male, Sprague-Dawley, rat, in vivo, sc, 25 mg/kg
measure: AUC(0-t) (ng·h/mL)
Give bare numbers, in ng·h/mL.

Name the recorded AUC(0-t) for Ac-IGLHDPSHGTLPAGS-OH [Peptide 12, Ac-IGLHDPSHGTLPAGS-OH] .
11100

* * *

- experimental_details: Pharmacokinetics in rat, subcutaneous bolus (Example VII)
- Type: in vivo
- condition: male, Sprague-Dawley, rat, in vivo, sc, 25 mg/kg
measure: Cmax (ng/mL)
Answers are plain numbers, in ng/mL.

Name the recorded Cmax for Ac-IGLHDPSHGTLPAGS-OH [Peptide 12, Ac-IGLHDPSHGTLPAGS-OH] .
14000

* * *

- experimental_details: Pharmacokinetics in SD rats after single subcutaneous dose (Example X)
- Format: in vivo, rat
- condition: plasma, sc; male Sprague-Dawley rat, subcutaneous, 25 mg/kg; read-out: AUC(0-t)
Please respond with reported AUC(0-t) for every item in the list.
# do not omit the unit; it follows the number

Take each entry in turn and give its AUC(0-t).
1. Ac-IGLHDPSHGTLPNGS-OH [Peptide 16, Ac-IGLHDPSHGTLPNGS-OH]
2. Ac-IGLHDPSHGTLPNGS-NH2 [Peptide 31, Ac-IGLHDPSHGTLPNGS-NH2]
3. Ac-IGLHDPSHGTLPAGS-NH2 [Peptide 29, Ac-IGLHDPSHGTLPAGS-NH2]
4. H-IGLHDPSHGTLPNGS-OH [Peptide 1, H-IGLHDPSHGTLPNGS-OH, reference compound]

11200 ng·h/mL
15600 ng·h/mL
14400 ng·h/mL
294 ng·h/mL

* * *

- experimental_details: Pharmacokinetics in rat, intravenous bolus
- Format: in vivo
- condition: male, Sprague-Dawley, plasma; RAT (IV), 25 mg/kg; read-out: AUC(0-t)
- Procedure: After 7 days acclimation, male Sprague-Dawley (SD) rats weighing 210-250 g, or male C57BL/6 mice, weighing 19-24 g, in good health were used in the study. […] The resulting plasma was stored frozen at −80° C. until being analyzed. Plasma concentrations of peptides were determined using tandem mass spectrometry (LC-MS/MS) analysis. […]
measure: AUC(0-t)

substance | measure | result
H-IGLHDPSHGTLPNGS-OH [Peptide 1, H-IGLHDPSHGTLPNGS-OH, reference compound] | AUC(0-t) | 21.9 ng·h/mL

Name the recorded AUC(0-t) for Ac-IGLHDPSHGTLPNGS-OH [Peptide 16, Ac-IGLHDPSHGTLPNGS-OH] .
12200 ng·h/mL

* * *

- experimental_details: Pharmacokinetics in mouse, subcutaneous bolus
- Format: in vivo
- condition: male, C57BL/6, mouse, in vivo, sc, 25 mg/kg
measure: AUC(0-t) (ng·h/mL)
One number for each entry, in ng·h/mL.

Name the recorded AUC(0-t) for Ac-IGLHDPSHGTLPAGS-OH [Peptide 12, Ac-IGLHDPSHGTLPAGS-OH] .
5870

* * *

- experimental_details: Pharmacokinetics in rat, subcutaneous bolus (Example VII)
- Assay type: in vivo
- condition: male, Sprague-Dawley, rat, in vivo, sc, 25 mg/kg
measure: AUC(0-inf) (ng·h/mL)
Give bare numbers, in ng·h/mL.

Name the recorded AUC(0-inf) for Ac-IGLHDPSHGTLPAGS-OH [Peptide 12, Ac-IGLHDPSHGTLPAGS-OH] .
8480
